test_protocol: Inhibition of constitutively activated GST-tagged human MEK1 S218D/[…] (MEK1DD) mutant assessed blocking of increase in bovine MBP kinase activity of recombinant His6-tagged ERK2 using [gamma32P]ATP by liquid scintillation counting method
quantity_measured: IC50 (nM)

Worked cases, answers included:
// field: IC50; key: `COc1cccc(-c2cc(=O)c3cc(Cl)cc(NC(C)C)c3o2)c1N` ; value = 2700

// field: IC50; key: `COc1cccc(-c2cc(=O)c3cc(Cl)cc(NCCCN(C)C)c3o2)c1N` ; value = 6800

// field: IC50; key: `COc1cccc(-c2cc(=O)c3cc(Cl)cc(NCc4ccccc4)c3o2)c1N` ; value = 1400

// field: IC50; key: `COCCCNc1cc(Cl)cc2c(=O)cc(-c3cccc(OC)c3N)oc12` ; value = 9100

I = COc1cccc(-c2cc(=O)c3ccccc3o2)c1N
II = COc1cccc(-c2cc(=O)c3cc(Cl)cc(NCCCO)c3o2)c1N
III = COc1cccc(-c2cc(=O)c3cc(Cl)cc(NCCCN)c3o2)c1N
IV = COc1cccc(-c2cc(=O)c3cc(Cl)cc(NC4CCOCC4)c3o2)c1N
V = COc1cccc(-c2cc(=O)c3cc(Cl)cc(NCC[C@H](O)CO)c3o2)c1N
INPUT: Ascending by IC50, please: list the compounds accordingly. Lab note: final answer is the ordered label list.
OUTPUT: II, V, IV, I, III
(II: 30 nM, V: 220 nM, IV: 1100 nM, I: 2000 nM, III: 10300 nM)

Measured values drawn from ChEMBL document CHEMBL3352752 for this set.
